# credit: patent US8178506B2

- Test system: aP2
- protocol-notes: aP2 mRNA expression in adipocytes (real-time PCR)
- Type: cell-based, human
- measurement-setup: differentiating adipocytes transfected with oligomeric compound; Table 75
- Experimental: Expression of the four hallmark genes, HSL, aP2, Glut4, and PPARγ, is also measured in adipocytes transfected with oligomeric compounds of the invention. Cells are lysed on day nine post-transfection and total RNA is harvested. The amount of total RNA in each sample is determined using a Ribogreen Assay (Invitrogen Life Technologies, Carlsbad, Calif.). […]
In the oligonucleotide strings, read from the 5' end, every base follows the letter of its sugar. An asterisk marks phosphorothioate; unmarked linkages are phosphodiester. Other units and linkages are bracketed, terminal groups are in braces. A string of capitals states the bases alone. e = 2'-O-(2-methoxyethyl) (MOE); [5mC] = 5-methylcytosine
value-type: aP2 mRNA

# input For the substance 328100 (antisense eA*eA*eT*e[5mC]*eT*e[5mC]*eT*eG*e[5mC]*eA*eG*eG*e[5mC]*eA*eA*eA*eT*eG*eT*eG*eA) [compound 328100] , what aP2 mRNA is on record?
# output 47 percentage of untreated control (UTC)

# input Would you mind telling me what aP2 mRNA value was observed for 328138 (eG*eA*eG*e[5mC]*eT*eG*e[5mC]*eT*e[5mC]*eA*eG*e[5mC]*eT*eG*eG*e[5mC]*e[5mC]*eA*eT*e[5mC]*eA; anti-miR) [compound 328138] ?
# output 52 percentage of untreated control (UTC)

# input Item 341791 (antisense GCUUCCAGUCGAGGAUGUUUACA; all 2'-MOE, all phosphorothioate, methylation of C and T or U not given here) [compound 341791] has what recorded aP2 mRNA?
# output 80 percentage of untreated control (UTC)

# input What does the data say about its aP2 mRNA? Entry: 346693 (CCCUCUGGUCAACCAGUCACA; all 2'-MOE, all phosphorothioate, methylation of C and T or U not given here) [compound 346693]
# output 77 percentage of untreated control (UTC)

# input Quick check: aP2 mRNA of 328134 (eA*eA*eT*eT*eG*eG*eA*e[5mC]*eA*eA*eA*eG*eT*eG*e[5mC]*e[5mC]*eT*eT*eT*e[5mC]*eA; anti-miR) [compound 328134] ?
# output 97 percentage of untreated control (UTC)

# input Which measured aP2 mRNA value corresponds to 327945 (antisense e[5mC]*eT*eG*eT*eT*e[5mC]*e[5mC]*eT*eG*e[5mC]*eT*eG*eA*eA*e[5mC]*eT*eG*eA*eG*e[5mC]*e[5mC]*eA) [compound 327945] ?
# output 43 percentage of untreated control (UTC)

# input Look up aP2 mRNA: 344614 (CCAGCAGCACCUGGGGCAGU; all 2'-MOE, all phosphorothioate, methylation of C and T or U not given here) [compound 344614]
# output 78 percentage of untreated control (UTC)

# input Request the reported aP2 mRNA associated with 327940 (antisense eG*eA*eA*e[5mC]*eA*eG*eG*eT*eA*eG*eT*e[5mC]*eT*eG*eA*eA*e[5mC]*eA*e[5mC]*eT*eG*eG*eG) [compound 327940]
# output 62 percentage of untreated control (UTC)

# input Any idea what aP2 mRNA was measured for 344616 (AGAGGUCGACCGUGUAAUGUGC; anti-miR; all 2'-MOE, all phosphorothioate, methylation of C and T or U not given here) [compound 344616] ?
# output 26 percentage of untreated control (UTC)
